Origin of values: ChEMBL document CHEMBL3272102

Tested on: Rattus norvegicus
measurement notes: Antiinflammatory activity in po dosed Wistar rat assessed as inhibition of carrageenan-induced paw edema administered 30 mins prior to 1%, sc carrageenan challenge measured after 3 hrs
Format: functional
assay readout: ED50
# number then unit; no other words

Answered examples (5):
compound=COc1ccc(-c2cc3c(n2-c2ccc(O)c(C(=O)O)c2)CCCC3)cc1 result_value="173 mg/kg"
compound="CC(=O)Oc1ccccc1C(=O)O [ASPIRIN]" result_value="140 mg/kg"
compound=O=C(O)c1cc(-n2c(-c3ccccc3)cc3c2CCCC3)ccc1O result_value="87 mg/kg"
compound="O=C(O)c1cc(-n2c(-c3ccccc3)cc3c2CCc2ccccc2-3)ccc1O [FENDOSAL]" result_value="125 mg/kg"
compound=O=C(O)c1cc(-n2c(-c3ccc(-c4ccccc4)cc3)cc3c2CCCC3)ccc1O result_value="162 mg/kg"

Exam item: Name the reported ED50 value associated with the compound O=C(O)c1cc(-n2c(-c3ccc(F)cc3)cc3c2CCCC3)ccc1O
Marked response: 88 mg/kg

Exam item: Name the reported ED50 value associated with the compound O=C(O)c1cc(-n2c(-c3ccccc3)cc3c4ccccc4ccc32)ccc1O
Marked response: 105 mg/kg
